Hi! I'm sharing some Ki results obtained with purified human autoBACE-2 (Homo sapiens (Human), UniProt Q9Y5Z0).
Sequence (Q9Y5Z0 63-473 limits assumed): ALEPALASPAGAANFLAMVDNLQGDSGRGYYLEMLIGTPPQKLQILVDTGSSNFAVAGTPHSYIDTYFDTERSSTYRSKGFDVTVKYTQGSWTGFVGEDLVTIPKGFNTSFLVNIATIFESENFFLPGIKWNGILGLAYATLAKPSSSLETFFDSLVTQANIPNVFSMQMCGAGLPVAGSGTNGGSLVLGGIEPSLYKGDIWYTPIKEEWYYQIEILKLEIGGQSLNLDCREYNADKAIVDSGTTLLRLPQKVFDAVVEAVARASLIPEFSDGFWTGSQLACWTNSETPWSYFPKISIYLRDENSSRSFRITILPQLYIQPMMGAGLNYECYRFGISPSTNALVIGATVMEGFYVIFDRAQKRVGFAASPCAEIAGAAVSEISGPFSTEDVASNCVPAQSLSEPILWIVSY

Record excerpt, results attached:
- Compound: "COc1cccc(NC(=O)c2cc(Cl)c([C@]3(C)CS(=O)(=O)C4(CC4)C(=N)N3)s2)n1 [Example 79a]"
  Measured target: "purified human autoBACE-2 (Homo sapiens (Human), UniProt Q9Y5Z0)"
  Result type: "Ki"
  Observed value: "< 20 nM"
- Compound: "COc1ccc(C(=O)Nc2ccc(F)c([C@]3(C)CS(=O)(=O)[C@@]4(CCOC4)C(=N)N3)c2)nc1 [Example 63a]"
  Measured target: "purified human autoBACE-2 (Homo sapiens (Human), UniProt Q9Y5Z0)"
  Result type: "Ki"
  Observed value: "< 20 nM"
- Compound: "C[C@@]1(c2sc(-c3ccnc(-c4ccccc4)c3)cc2Cl)CS(=O)(=O)[C@]2(CCOC2)C(=N)N1 [Example 62n]"
  Measured target: "purified human autoBACE-2 (Homo sapiens (Human), UniProt Q9Y5Z0)"
  Result type: "Ki"
  Observed value: "< 20 nM"
- Compound: "COc1cnc(C(=O)Nc2ccc(F)c([C@]3(C)CS(=O)(=O)C4(CCC4)C(=N)N3)c2)cn1 [Example 7]"
  Measured target: "purified human autoBACE-2 (Homo sapiens (Human), UniProt Q9Y5Z0)"
  Result type: "Ki"
  Observed value: "< 50 nM"
- Compound: "C[C@@]1(c2sc(-c3cncc(C#N)c3)cc2Cl)CS(=O)(=O)C2(CC2)C(=N)N1 [Example 65]"
  Measured target: "purified human autoBACE-2 (Homo sapiens (Human), UniProt Q9Y5Z0)"
  Result type: "Ki"
  Observed value: "< 50 nM"

Given the compound C[C@@]1(c2cc(NC(=O)c3ccc(C#N)cn3)ccc2F)CS(=O)(=O)[C@@]2(CCOC2)C(=N)N1 [Example 63d] , what is its reported Ki?
< 20 nM

Given the compound C[C@@]1(c2sc(C#CC3(c4ccccc4)CCCC3)cc2Cl)CS(=O)(=O)C2(CCC2)C(=N)N1 [Example 77] , what is its reported Ki?
< 50 nM

Given the compound C[C@@]1(c2sc(-c3cccc(C#N)c3)cc2Cl)CS(=O)(=O)C2(CCOCC2)C(=N)N1 [Example 49] , what is its reported Ki?
< 50 nM

Given the compound C[C@@]1(c2sc(-c3cccc(-c4nnco4)c3)cc2Cl)CS(=O)(=O)C2(CCCCC2)C(=N)N1 [Example 47a] , what is its reported Ki?
< 50 nM

Given the compound C[C@@]1(c2sc(-c3cncc(C#N)c3)cc2Cl)CS(=O)(=O)[C@@]2(CCOC2)C(=N)N1 [Example 63e] , what is its reported Ki?
< 50 nM

Given the compound CC(C)(C)C#Cc1cc(Cl)c([C@]2(C)CS(=O)(=O)C3(CCC3)C(=N)N2)s1 [Example 77a] , what is its reported Ki?
< 20 nM

Given the compound C[C@@]1(c2cc(NC(=O)c3ccc(F)cn3)ccc2F)CS(=O)(=O)C2(CCC(O)C2)C(=N)N1 (single isomer, unassigned) [Example 76b] , what is its reported Ki?
< 50 nM

Given the compound C[C@@]1(c2sc(C#CC3CCCC3)cc2Cl)CS(=O)(=O)C2(CCC2)C(=N)N1 [Example 77b] , what is its reported Ki?
< 50 nM

Given the compound C[C@@]1(c2sc(-c3ccnc(-c4ccsc4)c3)cc2Cl)CS(=O)(=O)[C@@]2(CCOC2)C(=N)N1 [Example 63n] , what is its reported Ki?
< 20 nM

Given the compound C[C@@]1(c2sc(-c3cccc(-c4nnco4)c3)cc2Cl)CS(=O)(=O)C2(CC2)C(=N)N1 [Example 65a] , what is its reported Ki?
< 50 nM

Given the compound C[C@@]1(c2cc(NC(=O)c3cn4ncsc4n3)ccc2F)CS(=O)(=O)C2(CCCC2)C(=N)N1 [Example 19] , what is its reported Ki?
< 20 nM
